B1: Adenylate kinase, P07170 (parent)
chain: MSSSESIRMVLIGPPGAGKGTQAPNLQERFHAAHLATGDMLRSQIAKGTQLGLEAKKIMDQGGLVSDDIMVNMIKDELTNNPACKNGFILDGFPRTIPQAEKLDQMLKEQGTPLEKAIELKVDDELLVARITGRLIHPASGRSYHKIFNPPKEDMKDDVTGEALVQRSDDNADALKKRLAAYHAQTEPIVDFYKKTGIWAGVDASQPPATVWADILNKLGKD

Variants of: B1
measurement conditions: Saccharomyces cerevisiae (strain ATCC 204508 / S288c); pH 7.5; Thermal; Fluorescence; MOPS-NaOH 30 mM; reversible: yes; structure 2AKY; whole UniProt chain shown
For each record, write down the corresponding change of melting temperature, mutant - wild type (higher = more stable).
Response body: numeric value in °C, unit text excluded.

query: I would be grateful if you could share the reported change of melting temperature, mutant - wild type (higher = more stable) for `T79H` .
result: -1.1

query: Also need `N171D` , thanks.
result: -0.6

query: Also need `V10I` , thanks.
result: -1.5

query: Also need `I215F` , thanks.
result: -7.7
